Attribute: IC50
target: purified DHFR of the multiresistant strain Streptococcus pneumoniae 1/1 (Streptococcus pneumoniae serotype 4, UniProt Q54801); assay: Inhibition of purified bacterial dihydrofolate reductase (method of Baccanari and Joyner); conditions: read-out: IC50 values S.pneumoniae 1/1, IC50 determined by means of a graph
The reply should contain only the number, in nM.

{"columns": ["compound", "unit abbrev", "IC50"],
 "data": [
  ["COc1cc(Cc2cnc(N)nc2N)cc(/C=C/C(=O)N2N=Cc3ccccc3C2c2ccc(O)cc2)c1OC (racemic) [D]", "nM", 9],
  ["COc1cc(Cc2cnc(N)nc2N)cc(/C=C/C(=O)N2N=Cc3ccccc3[C@@H]2c2ccc(C)nc2)c1OC [H]", "nM", 1.2],
  ["CCc1ccc(C2c3ccccc3C=NN2C(=O)/C=C/c2cc(Cc3cnc(N)nc3N)cc(OC)c2OC)cn1 (racemic) [J]", "nM", 1.5]
]}

According to the records, this compound CCCC1c2ccccc2C=NN1C(=O)/C=C/c1cc(Cc2cnc(N)nc2N)cc(OC)c1OC (racemic) [G] displays IC50 of 5

According to the records, this compound COc1cc(Cc2cnc(N)nc2N)cc(/C=C/C(=O)N2N=Cc3ccccc3C2c2ccccc2)c1OC (racemic) [A] displays IC50 of 12

According to the records, this compound COc1cc(Cc2cnc(N)nc2N)cc(/C=C/C(=O)N2N=Cc3ccccc3C2c2ccc(C)nc2)c1OC (racemic) [I] displays IC50 of 0.4

According to the records, this compound COc1cc(Cc2cnc(N)nc2N)cc(/C=C/C(=O)N2N=Cc3ccccc3C2CCCCO)c1OC (racemic) [F] displays IC50 of 9

According to the records, this compound COc1cc(Cc2cnc(N)nc2N)cc(/C=C/C(=O)N2N=Cc3ccccc3C2c2ccco2)c1OC (racemic) [B] displays IC50 of 22

According to the records, this compound CCC1c2ccccc2C=NN1C(=O)/C=C/c1cc(Cc2cnc(N)nc2N)cc(OC)c1OC (racemic) [E] displays IC50 of 18

According to the records, this compound COc1cc(Cc2cnc(N)nc2N)cc(/C=C/C(=O)N2N=Cc3ccccc3C2c2cnc(C)nc2)c1OC (racemic) [K] displays IC50 of 2.5

According to the records, this compound COc1cc(Cc2cnc(N)nc2N)cc(/C=C/C(=O)N2N=Cc3ccccc3C2c2ccc(CO)cc2)c1OC (racemic) [C] displays IC50 of 2
